Listed below: viability at 24 h, 1000 µM values for each entry.
- Assay Notes: Cytotoxicity against chinese hamster V79-4 cells assessed as survival using 1 x 10^5 cells per plate at 10^-3 M after 24 hrs
- Format: cell-based, Cricetulus griseus
- Assay Context: read-out: Survival
Measured Parameter: viability at 24 h, 1000 µM (%)

1) O=C1CN([C@H]2C[C@@H]2N2CC(=O)NC(=O)C2)CC(=O)N1 (relative stereo)	30
2) COC(=O)CN(CC(=O)OC)[C@@H]1C[C@H]1N(CC(=O)OC)CC(=O)OC (relative stereo)	0.02

====

Listed below: viability at 24 h, 10 µM values for each entry.
- Assay Notes: Cytotoxicity against chinese hamster V79-4 cells assessed as survival using 1 x 10^5 cells per plate at […] after 24 hrs
- Assay type: cell-based, Cricetulus griseus
- Assay Context: read-out: Survival
Measured Parameter: viability at 24 h, 10 µM (%)

1. O=C(O)CN(CC(=O)O)[C@@H]1C[C@H]1N(CC(=O)O)CC(=O)O (relative stereo)	10
2. O=C1CN([C@H]2C[C@@H]2N2CC(=O)NC(=O)C2)CC(=O)N1 (relative stereo)	70
3. CC(CN(CC(=O)O)CC(=O)O)N(CC(=O)O)CC(=O)O (centres undefined)	94
4. COC(=O)CN(CC(=O)OC)[C@@H]1C[C@H]1N(CC(=O)OC)CC(=O)OC (relative stereo)	90
